Values compiled from a melting point compilation (Tetko et al.; mined from patent text by program, amines drawn as free bases though some values may be those of a salt).

Attribute: melting point

// worked examples, melting point included
CCCCC1N=c2ccc(OCC)c(C(=O)OCC)c2=NC1=O (configuration not stated): 168 to 169 °C
CCC(C(=O)C(C)C(O)C(C)CCc1c(NC(C)=O)cc(C)c(O)c1C(=O)O)C1OC(CC)(C2CCC(O)(CC)C(C)O2)CC1C (configuration not stated): 189 to 190 °C
Cc1ccc2c(c1)N=C(N1CCN(C)CC1)c1cccc3c1N2CC3: 160 to 162 °C
CCOC(=O)C1CN(C(=O)C(C)(C)C)CCC1=O (configuration not stated): 46 to 50 °C
CCCCCCCOc1cc2c(cc1C=Cc1ccc(C(=O)O)cc1)C(C)(C)CCC2(C)C: 153 to 155 °C

Problem: // fetch melting point given entry CC12CCC3C(CCC4C(=[N+]=[N-])C(=O)CCC43C)C1CCC2O (configuration not stated)
Solution: 171 °C

Problem: // fetch melting point given entry `CC(C)(C)CNC(=O)c1ccc(Br)c(C(=O)O)c1`
Solution: 176 to 179 °C

Problem: // fetch melting point given entry `O=C(Nc1nc(-c2ccccn2)nc2ccccc12)C(F)(F)F`
Solution: 245 to 248 °C

Problem: // fetch melting point given entry OC(CNCCCOCCCCCCc1ccccc1)c1ccc2c(n1)COC(c1ccccc1)O2 (configuration not stated)
Solution: 64 to 68 °C

Problem: // fetch melting point given entry `Cc1nn(C(=O)NC(C)C)c(=O)n1C`
Solution: 81 °C

Problem: // fetch melting point given entry CC12C=CC(=O)C(N)=C1CCC1C2CCC2(C)C(=O)CCC12 (configuration not stated)
Solution: 162 to 169 °C

Problem: // fetch melting point given entry CCc1nc2ccc(C(C(C)C)n3ccnc3)cc2[nH]c1=O (configuration not stated)
Solution: 204 °C

Problem: // fetch melting point given entry `O=C(O)c1cccc2ccc3c4ccccc4[nH]c3c12`
Solution: 343 °C

Problem: // fetch melting point given entry `c1ccc(Cn2nnnc2-c2ccccc2)cc1`
Solution: 54 to 67 °C

Problem: // fetch melting point given entry CC(O)c1nccc2ccccc12 (configuration not stated)
Solution: 60 to 62 °C

Problem: // fetch melting point given entry `O=C(O)c1ccc(NC(=O)c2ccc(-c3ccccc3)cc2)cc1`
Solution: > 320 °C

Problem: // fetch melting point given entry `COc1cc2c(Nc3ccc(Cl)cc3F)ncnc2cc1OCCCn1ccccc1=O`
Solution: 216 to 218 °C

Problem: // fetch melting point given entry `Cc1[nH]cnc1Cn1nnnc1-c1cccc(Cl)c1Cl`
Solution: 151 to 153 °C

Problem: // fetch melting point given entry `CC(=O)NC(C)=NC(=Nc1ccccc1)N1CCOCC1`
Solution: 146 to 149 °C

Problem: // fetch melting point given entry `CC1(C)CC(=O)C=C(c2ccc(OCC(=O)O)c(Cl)c2Cl)C1`
Solution: 178 to 180 °C

Problem: // fetch melting point given entry `c1ccc(Cn2c(NC3CCN(C4CCCCC4)CC3)nc3ccccc32)cc1`
Solution: 143 °C

Problem: // fetch melting point given entry `Brc1c[nH]c2ccc(OCc3ccccc3)cc12`
Solution: 89 to 92 °C
